molecular target: CD137 on Jurkat reporter cells (Promega) (UniProt Q07011 24-255, limits assumed); test: cell-based or functional assay
Sequence (Q07011 24-255 limits assumed): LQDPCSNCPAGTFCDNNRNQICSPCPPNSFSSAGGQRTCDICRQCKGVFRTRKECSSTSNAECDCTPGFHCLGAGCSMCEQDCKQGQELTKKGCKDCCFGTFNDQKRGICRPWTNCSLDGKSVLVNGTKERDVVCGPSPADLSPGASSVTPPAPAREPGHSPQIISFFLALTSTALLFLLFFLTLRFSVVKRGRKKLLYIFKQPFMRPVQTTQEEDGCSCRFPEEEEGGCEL
Starred links: 1 amine or outer side, 2 acyl side, 3 side chain; linkers in the order of their positions; H or OH if unused. Positions of bridges follow the written chain, without caps; N, C: chain ends. Non-standard residues stand in square brackets, D forms with d. No end group written: not given here. BCN = bicyclo[6.1.0]non-4-yn-9-ylmethyl carbonate as carbamate, click handle; TATA = O=C(CC[*:1])N1CN(C(=O)CC[*:2])CN(C(=O)CC[*:3])C1; Nle = CCCC[C@H](N)C(=O)O
Attribute: Average Fold EC50 Improvement relative to CD137L
Report the value in fold with no unit label.

Binder: XACIEEGQYCFADPYXCA (not fully specified; (BCN)-A-CiIEEGQYCiiFADPY(Nle)Ciii-A; Cys on TATA scaffold) [BCY8149]
Experimental value: 140

Reported Average Fold EC50 Improvement relative to CD137L for Ac-ACIEK(BCN)GQYCFADPY[Nle]CA (linker 2-9-16 via TATA; not fully specified; also: tetramer of four peptide units on central hinge A (TET) via spacer S1A n=10) [BCY8150] was 4.14

Reported Average Fold EC50 Improvement relative to CD137L for XACIEEGQYCFADPYXCA (not fully specified; (PYA)-A-CiIEEGQYCiiF[D-A]DPY[Nle]Ciii-A; Cys on TATA scaffold) [BCY8583] was 0.031

Reported Average Fold EC50 Improvement relative to CD137L for Ac-ACIEEGK(BCN)YCFADPY[Nle]CA (linker 2-9-16 via TATA; not fully specified; also: trimer of three peptide units on central hinge B (TCA) via spacer S1A n=10) [BCY8151] was 213
